# methodSummary: yeast display, Sf9 membrane polyspecificity reagent, FACS + sequencing; frameworks hold sequencing errors
assayMetric: polyreactivity (PSR sort gate)

Some sequences with known polyreactivity (PSR sort gate) results, for comparison:
QVQLVESGGGLVQAGGSLRLSCAASGSIFVVYAMGWYRQAPGKERELVAVITDDGSTYYADSVKGRFTISRDNAKNTVYLQMNSLKPEDTAVYYCAAEGAATPDFGSWYYYWGQGTQVTVSS :: low polyreactivity
QVQLVESGGGLVQAGGSLRLSCAASGSILLWNTMGWYRQAPGKERELVADIRLSASSTYYSDSVKGRITISRDNAKNTVYLQMNSLKPEDTAVSYSAADEYTPDYGQGYDYWGQGTQVTVSS :: low polyreactivity
QVQLVESRGGLVQAGGSLRLSCAASGRTFSGNAMGWYRQAPGKERELVAAITSVGTTNYADSVKGRFTISRDNANNTVYLQMNSLKPEHTAVYYCAADPPSDYYKYDYWGHGTQVTVSS :: low polyreactivity
QVQLVESGGGLVQAGGSLRLSCAASGFIFSVNAMGWYRQAPGKERELVADISCRGTSTNYADSVKGRFTISRDNAKNTVYLQMNSLKPEDTAVYYCAADGQLHMDYWGQGTQVTVSS :: high polyreactivity
QVHLVESGGGLVQAGGSLRLSCAASGSTIRFNAMGWYRQAPGKERELVAAISGSGGSTYYADSVKGRFTISRDNAKKTVYLQMNSLKPEDTAVYYCAASASSRSYFKSYYWGQGTQVTVSS :: high polyreactivity

Incoming: Could you share which polyreactivity (PSR sort gate) value was measured for QVQLVESGGGLVQAGGSLRLSCAASGRTFRYYAMGWYRQAPGKERELVAAITSGGSTYYADSVKGRFTISRDNAKNTVYLQMNSLKPEDTAVYYCAAVPAGLWATYPQFRYGYWGQGTQVTVSS ?
Outgoing: high polyreactivity

Incoming: Could you share which polyreactivity (PSR sort gate) value was measured for QVQLVESGGGLVQAGGSLRLSCAASGRIFYYNAMGWYRQAPGKERDLVAAITYSGTSTYYADSVKGRFTISRDNAKNTVYLQINSLKPEDTAVYYCAVDSTDQAPPTYDYWGQGTQVTVSS ?
Outgoing: low polyreactivity

Incoming: Could you share which polyreactivity (PSR sort gate) value was measured for QVQLVESGGGLFQAGGSLRLSCAASGRIFRGYAMGWYRQAPGKERELVAAIDRVGRTKYADSVKGRFTISRDNAKNTVYLHMNSLKPEDTAVYYCAAKASRVDWGYGYWGQGTQVTVSA ?
Outgoing: high polyreactivity

Incoming: Could you share which polyreactivity (PSR sort gate) value was measured for QVQLVESGGGLVQAGGSLRLSCAASGSTFAGNAMGWYRQAPGKERELVAAISSSGAGTYYADSVKGRFTISRDNAKNTVYLQMNSLKPEVTAVYYCNVGSRALRRRVRSVSFDYWGQGTQVTVSS ?
Outgoing: low polyreactivity

Incoming: Could you share which polyreactivity (PSR sort gate) value was measured for QVQLVESGGGLVQAGGSLRLSCAASGFTFSYNAMGWYRQAPGKERELVAAISSGGRTHYADSVKGRFTISRDNAKNTVYLQMNILKPEDTAVYYCNAQKYPRYSRTSGRNYNYWGQGTQVTVSS ?
Outgoing: high polyreactivity

----------
# methodSummary: yeast display, Sf9 membrane polyspecificity reagent, FACS + sequencing; frameworks hold sequencing errors
assayMetric: polyreactivity (PSR sort gate)

QVQLVESGGGLVQAGGSLRISCAASGSIFWANAMGWYRQAPWKERELVAAISSSGGRTYYADSVKGRFTISRDNAKNTVYLQMNSLKPEDSAVYDCNKLRLAYYEQGDYWGQGTQVNVSS :: high polyreactivity
QVQLVESGGGLVQAGGSLRLSCAASGFTFTGYAMGWYRQAPGKERELVAAISHDGGSTYYADSVKGRFTISRDNAKNTVYLQMNSLKPEDTAVYYCAAAFRAAGRTVRYYWGQGTQVTVSS :: high polyreactivity

All values here come from the nanobody polyreactivity screen of Harvey et al. (2022).
